For each record, write down the corresponding GI50.
Tested on: T-47D breast
assay.method.text: NCI tumour cell line growth inhibition, 48 h

Examples with their reported GI50 follow.
| compound | reported |
| --- | --- |
| O=C1NNC(=O)c2ccccc2SSc2ccccc2C(=O)NNC(=O)c2ccccc2SSc2ccccc21 | 2340 nM |
| Cc1cnc(NC(=O)C(Cc2ccccc2)NC(=O)c2ccccc2)s1 (stereo not drawn) | 23100 nM |
| Oc1ccc(Cl)cc1-c1cc(-c2ccccc2Cl)[nH]n1 | 1610 nM |
| Cn1ccnc1C(=O)/C=C/c1ccc(CC(=O)Nc2ccc(Br)cc2)cc1 | 5500 nM |
| O=c1n(CC2CO2)c(=O)n(CC2CO2)n1CC1CO1 (stereo not drawn) | 6640 nM |
| CC(C)c1ccc(C(C)C(=O)N(CC2=C(C(C)c3ccccn3)c3ccccc3C2)C(C)C)cc1 (stereo not drawn) | 2940 nM |
| Fc1ccc(Nc2ncnc3ccc(-c4cnc5[nH]ccc5c4)cc23)cc1Cl | 592 nM |
| CCCCCCCCSC1=CC(=O)c2nc3ccccc3c3ccnc1c23 | 84500 nM |
| COC(=O)Nc1nc2ccc(S(=O)c3ccccc3)cc2[nH]1 (stereo not drawn) | 4380 nM |
| Cc1cc(=O)n2[nH]c(-c3ccc(C(C)(C)C)cc3)cc2n1 | 4430 nM |

Look up GI50 for the entries below, preserving their order.
1. O=C(CCl)N1c2ccccc2Oc2ccc3ccccc3c21
2. NC(CSC(c1ccccc1)(c1ccccc1)c1ccc2c(c1)OCO2)C(=O)O (stereo not drawn)
3. Cc1cc2nc(C(Cl)Cl)nc(-c3ccc(Cl)cc3)n2n1

1690 nM
597 nM
2190 nM

----------
System: MCF7 breast
assay.method.text: NCI tumour cell line growth inhibition, 48 h; in the data active means GI50 below about 0.43 µM; inactive means the rest
Outcome field: choose from active, inactive

A selection of reference data follows.
| molecule | target.entity | qualitative.label |
| --- | --- | --- |
| Clc1cccc(Cc2cn3cc(-c4ccccc4)nc3s2)c1Cl | MCF7 breast | inactive |
| C=C(CNCCO)[C@@H]1CC[C@]2(CO)CC[C@]3(C)[C@H](CC[C@@H]4[C@@]5(C)CCC(N)C(C)(C)[C@@H]5CC[C@]43C)[C@@H]12 (stereo not given in full) | MCF7 breast | inactive |
| COc1ccc2c(c1)C(=O)/C(=C/c1ccc(OCC(=O)Nc3nccs3)cc1)O2 | MCF7 breast | inactive |
| COc1cc2nc(-c3ccc(C(F)(F)F)cc3)cc(OCCCN3CCC(O)CC3)c2cc1OC | MCF7 breast | inactive |
| O=C(CN1CCN(c2cc3c(cc2F)c(=O)c(C(=O)N/N=C/c2ccccc2O)cn3C2CC2)CC1)N/N=C\c1ccccc1O | MCF7 breast | active |
| COc1cc2nc(C)nc(N[C@H](C)c3cc(N)cc(C(F)(F)F)c3)c2cc1O[C@H]1CCOC1 | MCF7 breast | inactive |
| CCOc1ccccc1-n1c(CN2CCN(C(=O)COc3ccc(CNCCCCCCN4C5CCCC4CC(OC(=O)Nc4cc(C)ccc4OC)C5)cc3)CC2)nc2ccccc2c1=O (stereo not given) | MCF7 breast | inactive |
| C=C1C(=O)[C@@]23CC[C@H]4[C@@](C)(CCC[C@@]4(C)C(=O)OC)[C@@H]2CC[C@]1(O)C3 | MCF7 breast | active |

Please find the next molecule below.
Each molecule tested received a call. Report the one for Cc1cnc(NC(=O)C(Cc2ccccc2)NC(=O)c2ccccc2)s1 (stereo not given) .
inactive
